Molecular target: T1, human LRRC15 extracellular domain with C-terminal His tag (human, UniProt Q8TF66 22-538)
T1 construct: Recombinant, made in HEK293; the entry holds the extracellular domain and the His tag; SPR analyte; also called TPP-1545; hLRRC15 CT-His
T1 sequence: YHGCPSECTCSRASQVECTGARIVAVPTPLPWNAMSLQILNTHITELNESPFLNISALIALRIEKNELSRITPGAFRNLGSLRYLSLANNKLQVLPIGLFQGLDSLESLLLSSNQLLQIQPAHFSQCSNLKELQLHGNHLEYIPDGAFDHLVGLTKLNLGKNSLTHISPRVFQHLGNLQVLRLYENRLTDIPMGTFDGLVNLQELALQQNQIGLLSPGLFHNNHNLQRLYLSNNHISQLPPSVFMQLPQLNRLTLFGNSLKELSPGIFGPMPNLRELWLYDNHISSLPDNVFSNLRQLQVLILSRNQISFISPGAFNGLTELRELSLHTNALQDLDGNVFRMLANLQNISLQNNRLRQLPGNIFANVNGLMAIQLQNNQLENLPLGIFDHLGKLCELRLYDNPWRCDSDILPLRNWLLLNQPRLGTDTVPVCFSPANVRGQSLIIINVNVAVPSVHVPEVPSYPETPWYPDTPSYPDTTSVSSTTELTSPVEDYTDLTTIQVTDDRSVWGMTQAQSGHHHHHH
Assay: SPR Biacore T200, 25°C, antibody captured, LRRC15 analyte
# if measured Kd < 3 nM: MET  # else: NOT MET

// below: answered binders
1. TPP-14389 (antibody, human IgG1, kappa, V domains shown, also called 13612-rec02-hIgG1Kappa) VH: EVQLLESGGGLVQPGGSLRLSCAASGFTFSGYMMSWVRQAPGKGLEWVSGIYPSPGYTYYADSVKGRFTISRDNSKNTLYLQMNSLRAEDTAVYYCAREKASDLFGSYSEALDYWGQGTLVTVSS VL: DIQMTQSPDSLSASVGDRVTITCRASQDVGSWLAWYQQKPGKAPKLLIFAASSLESGIPSRFSGSGSGTDFTLTISSLQPEDFATYYCQQANGFPLTFGGGTKVEIKR : NOT MET
2. TPP-17419 (antibody, human IgG1, kappa, V domains shown, also called 438H-M307-H07-hIgG1Kappa) VH: EVQLVQSGAEVKKPGASVKVSCKASGYKFSSYWIEWVKQAPGQGLEWIGEILPGSDWTNYNEKFKDRATFTSDTSINTAYMELSRLRSDDTAVYYCARDRGNYRAWFQYWGQGTLVTVSS VL: DIQMTQSPSSLSASVGDRVTITCRISQSISSYLNWYQQKPGGAPKFLIYYASSLQSGVPSRFSGSGSGTDYTLTISSLQPEDFATYYCQQGLRLPWTFGGGTKVEIKR : NOT MET
3. TPP-12942 (antibody, human IgG1, kappa, V domains shown, Prior art humanized IgG1 kappa antibody, used as comparator; also called huM25; huM25-hIgG1Kappa) VH: EVQLVQSGAEVKKPGASVKVSCKASGYKFSSYWIEWVKQAPGQGLEWIGEILPGSDTTNYNEKFKDRATFTSDTSINTAYMELSRLRSDDTAVYYCARDRGNYRAWFGYWGQGTLVTVSS VL: DIQMTQSPSSLSASVGDRVTITCRASQDISNYLNWYQQKPGGAVKFLIYYTSRLHSGVPSRFSGSGSGTDYTLTISSLQPEDFATYFCQQGEALPWTFGGGTKVEIKR : NOT MET
4. TPP-14392 (antibody, human IgG1, kappa, V domains shown, also called 13612-rec05-hIgG1Kappa) VH: EVQLLESGGGLVQPGGSLRLSCAASGFTFSGYMMSWVRQAPGKGLEWVSGIYPSPGYTYYADSVKGRFTISRDNSKNTLYLQMNSLRAEDTAVYYCAREKASDLSGSYSEALDYWGQGTLVTVSS VL: DIQMTQSPDSLSASVGDRVTITCRASQDVGSWLAWYQQKPGKAPKLLIFAASYLESGIPSRFSGSGSGTDFTLTISSLQPEDFATYYCQQANGFPLTFGGGTKVEIKR : NOT MET
5. TPP-17418 (antibody, human IgG1, kappa, V domains shown, also called 438H-M308-H05_B-hIgG1Kappa) VH: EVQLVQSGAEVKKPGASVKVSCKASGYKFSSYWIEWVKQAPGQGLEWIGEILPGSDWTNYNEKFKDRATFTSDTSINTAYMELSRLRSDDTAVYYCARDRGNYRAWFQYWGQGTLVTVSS VL: DIQMTQSPSSLSASVGDRVTITCRASQSISSYLNWYQQKPGGAPKFLIYYASSLQSGVPSRFSGSGSGTDYTLTISSLQPEDFATYYCQQGFSLPWTFGGGTKVEIKR : MET
6. TPP-17073 (antibody, human IgG1, kappa, V domains shown, also called 438H-M113-N15-hIgG1) VH: EVQLLESGGGLVQPGGSLRLSCAASGFTFSGYMMSWVRQAPGKGLEWVSGIYPSAGYTLYADSVKGRFTISRDNSKNTLYLQMNSLRAEDTAVYYCAREKAADLFGSYSEALDYWGQGTLVTVSS VL: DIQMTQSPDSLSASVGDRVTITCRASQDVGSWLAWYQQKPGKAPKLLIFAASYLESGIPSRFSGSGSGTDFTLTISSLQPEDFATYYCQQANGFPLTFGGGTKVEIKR : MET
7. TPP-17421 (antibody, human IgG1, kappa, V domains shown, also called 438H-M306-C11-hIgG1Kappa) VH: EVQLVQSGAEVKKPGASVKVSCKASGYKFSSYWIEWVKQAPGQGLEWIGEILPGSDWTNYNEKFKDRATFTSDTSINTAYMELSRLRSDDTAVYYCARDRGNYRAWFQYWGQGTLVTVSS VL: DIQMTQSPSSLSASVGDRVTITCRASQSISSYLNWYQQKPGGAPKFLIYYASSLQSGVPSRFSGSGSGTDYTLTISSLQPEDFATYYCQQGLELPWTFGGGTKVEIKR : MET

Let's switch to this binder now.
Query :: Bench note: check whether TPP-17078 (antibody, human IgG1, kappa, V domains shown, also called 438H-M308-H05-hIgGkappa) VH: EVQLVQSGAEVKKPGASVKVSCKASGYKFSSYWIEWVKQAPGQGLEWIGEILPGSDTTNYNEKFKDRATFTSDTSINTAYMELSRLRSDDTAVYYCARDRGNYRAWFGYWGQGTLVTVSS VL: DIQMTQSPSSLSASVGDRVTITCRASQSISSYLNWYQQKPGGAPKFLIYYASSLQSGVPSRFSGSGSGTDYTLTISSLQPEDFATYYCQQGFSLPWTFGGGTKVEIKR shows Kd below 3 nM
Result :: MET
